# key: entry, value: GI50
Tested on: SR
experiment.notes: NCI tumour cell line growth inhibition, 48 h
The source made the active and inactive calls. Rule as the data show it: active = GI50 up to about 1.1 µM and inactive = higher.

# molecule, tested.target, GI50
data = [
    ("Nc1cc(N2CCCC2)nc(=O)n1-c1ccccc1", "SR", "> 100 µM (inactive)"),
    ("CCOC(=O)c1cc2c3c(cc(OC)c2[nH]1)N(C(=O)OCC)CC3", "SR", "86.1 µM (inactive)"),
    ("CC1=C/C(=N\\NC(N)=S)C(C(O)(C(F)(F)F)C(F)(F)F)C(C)(C)C1 (configuration not stated)", "SR", "> 10 µM (inactive)"),
    ("c1ccc2cc3[s+]snc3cc2c1", "SR", "> 100 µM (inactive)"),
    ("O=S(=O)(O)c1ccc2c(/N=N/c3ccccc3)c(O)c(S(=O)(=O)O)cc2c1", "SR", "> 100 µM (inactive)"),
    ("Cc1cc(S(=O)(=O)Nc2nnc3ccccn23)c(S)cc1Cl", "SR", "> 100 µM (inactive)"),
    ("COC(=O)/C=C(/C(=O)OC)c1cc2ccc3c([nH]c4ccccc43)c(C)c-2c1", "SR", "2.74 µM (inactive)"),
    ("C[S+]=c1sc2ccccc2s1", "SR", "> 100 µM (inactive)"),
    ("COc1cc2cc3c4c(cc(OC)c(OC)c4c2cc1OC)CCN3C", "SR", "1.25 µM (inactive)"),
    ("CC1=NN(c2nc(N)nc(C(C#N)C(=O)c3cc4c(cc3Cl)Sc3nccn3S4(=O)=O)n2)C(C)(C)C1 (configuration not stated)", "SR", "4.4 µM (inactive)"),
    ("O=C(Nc1nn(C(=O)c2cccnc2)c(=O)s1)c1ccc(Cl)cc1", "SR", "> 100 µM (inactive)"),
    ("CCCCOCc1cc(CN2CCN(C)CC2)c(O)c2ncccc12", "SR", "3.49 µM (inactive)"),
    ("CC(=O)c1sc2[n+](c1C)C(=O)/C(=C\\c1ccccc1Cl)S2", "SR", "18.3 µM (inactive)"),
    ("CN(C)C(=N)c1ccccc1", "SR", "> 100 µM (inactive)"),
    ("CC(=O)NC(CC(C)C)C(=O)NC(CC(C)C)C(=O)NC(C=O)CCCNC(=N)N (configuration not stated)", "SR", "> 100 µM (inactive)"),
    ("CC(C)C1N(C)c2ccc(Cl)cc2[C@H]2c3ccccc3CCN12 (some centres not stated)", "SR", "29.9 µM (inactive)"),
    ("O=C(O)[C@@H]1CCCN1 [PROLINE]", "SR", "> 100 µM (inactive)"),
    ("CCCCCC(O)C1C(=O)OC(C)C(O)/C=C/C=C/C=C/C=C\\C=C(\\C)C(O)CC(O)CC(O)CC(O)CC(O)CC(O)CC1O (configuration not stated)", "SR", "> 50 µM (inactive)"),
    ("CCOC(NC(=O)CC)(C(F)(F)F)C(F)(F)F", "SR", "> 100 µM (inactive)"),
    ("O=P(Nc1ccccc1)(Oc1ccccc1)N(CCCl)CCCl (configuration not stated)", "SR", "> 100 µM (inactive)"),
    ("O=C(Nc1ccccc1C(=O)O)C(=O)C(C(=O)c1ccccc1-c1ccccc1)C1OC(=O)c2ccccc21 (configuration not stated)", "SR", "18.3 µM (inactive)"),
    ("O=C(NCCc1ccccc1)C1C(=O)C(=O)N(CCc2ccccc2)C1=O (configuration not stated)", "SR", "> 100 µM (inactive)"),
    ("CCc1nnc(S)n1/N=C\\c1ccc(-c2ccccc2Cl)o1", "SR", "19.6 µM (inactive)"),
    ("CC1(C)[N+]([O-])=[N+]([O-])C1(C)Br (configuration not stated)", "SR", "91 µM (inactive)"),
    ("O=C1OC(C2Cc3ccc4ccccc4c3C2=O)c2ccccc21 (configuration not stated)", "SR", "35.2 µM (inactive)"),
    ("Cc1ccc(S(=O)(=O)N/N=C2\\C(=O)C3CC2C(Cl)C3Cl)cc1 (configuration not stated)", "SR", "> 100 µM (inactive)"),
    ("CCCCCOC(=O)c1cc2cc(CCl)ccc2oc1=O", "SR", "8.07 µM (inactive)"),
    ("CC1(C)CC(=O)c2c(nc3c(ccc4ccccc43)c2-c2ccc(NC(=O)CCCCCCCCC(=O)Nc3ccc(-c4c5c(nc6c4ccc4ccccc46)CC(C)(C)CC5=O)cc3)cc2)C1", "SR", "> 100 µM (inactive)"),
    ("N#CC(C(=O)CCCC(=O)Nc1ccc(Cl)cc1Cl)c1ccc(Cl)cc1 (configuration not stated)", "SR", "> 100 µM (inactive)"),
    ("CC1(C)CC(/C=C2/OC(=O)c3ccccc32)=C(C(N)=O)C(=O)O1", "SR", "> 100 µM (inactive)"),
    ("N#Cc1c(-c2ccc(Cl)cc2)c2c([nH]c1=O)-c1ccccc1SC2", "SR", "29.2 µM (inactive)"),
    ("CN(C)CCCC1c2ccccc2Oc2ccc(C(F)(F)F)cc21 (configuration not stated)", "SR", "7.28 µM (inactive)"),
    ("CCOC(=O)c1ccc2c(=O)n3c(C(=O)OCC)ccc3c(=O)n12", "SR", "> 100 µM (inactive)"),
    ("Cc1ccc(N2C(N)=C(C#N)C(C#N)(C#N)C2c2ccccc2)cc1 (configuration not stated)", "SR", "8.65 µM (inactive)"),
    ("COC(=O)C1=C(C(=O)OC)C(C(=O)c2ccc(Br)cc2)N2N=C(c3ccc(Cl)cc3)C=CC12 (configuration not stated)", "SR", "40.6 µM (inactive)"),
    ("N#CC(C#N)=c1ccc(=C2N3CCCC3CN2C23CC4CC(CC(C4)C2)C3)cc1 (configuration not stated)", "SR", "> 100 µM (inactive)"),
    ("COc1ccc2c(c1)CCC/C2=N\\NS(=O)(=O)c1c(C)cc(C)cc1C", "SR", "20.2 µM (inactive)"),
    ("CC1=C(C(=O)Nc2ccccc2C)C(c2ccc(C3C(C(=O)Nc4ccccc4C)=C(C)NC(C)=C3C(=O)Nc3ccccc3C)cc2)C(C(=O)Nc2ccccc2C)=C(C)N1", "SR", "2.67 µM (inactive)"),
    ("CCOC(=O)CCC(NC(=O)Cc1ccc(Nc2nc3ccccc3nc2-c2ccccc2)cc1)C(=O)OCC (configuration not stated)", "SR", "> 100 µM (inactive)"),
    ("CN(C)/C=N\\c1cccc2cnccc12", "SR", "> 100 µM (inactive)"),
    ("NC(=O)C1CCCN1C(=O)C(Cc1c[nH]cn1)NC(=O)C1CCCC1 (configuration not stated)", "SR", "> 100 µM (inactive)"),
    ("Cc1ccc(OCC2OC(n3cnc4nc(N)nc(Cl)c43)CC2Oc2ccc(C)cc2)cc1 (configuration not stated)", "SR", "6.71 µM (inactive)"),
]

----------
System: KM12
experiment.notes: NCI tumour cell line growth inhibition, 48 h
Active and inactive are the calls of the source. Rule as the data show it: active = GI50 up to about 1.1 µM and inactive = higher.
Outcome codes: active, inactive

# compound, assigned.label
data = [
    ("CSc1nc(C)c2c(n1)SCC2", "inactive"),
    ("Cc1ccc(C2C(C(=O)C(C)(C)C)N2S(=O)(=O)c2ccc(C)cc2)cc1 (stereo unspecified)", "inactive"),
    ("CCOC(=O)CCC(NC(=O)Cc1ccc(Nc2nc3ccccc3nc2-c2ccccc2)cc1)C(=O)OCC (stereo unspecified)", "inactive"),
    ("C(/C=N/c1ccccc1)=C(/Nc1ccccc1)c1ccc2ccccc2c1", "inactive"),
    ("CCn1c(SCc2nnc(Nc3ccccc3)s2)nc2ccccc2c1=O", "inactive"),
    ("OCc1cc2c(ccc3sc4ccc5sc6ccc7ncccc7c6c5c4c32)s1", "inactive"),
    ("CC(=O)c1sc2[n+](c1C)C(=O)/C(=C\\c1ccccc1Cl)S2", "inactive"),
    ("O=C1/C(=C2/CCCN2)C(c2ccc[nH]2)=NN1c1ccccc1", "inactive"),
    ("Oc1ccc([C@H]2c3c(O)cc(O)cc3C3c4c(cc(O)cc4[C@@H]2[C@H]2c4cc(O)cc5c4C(c4cc(O)cc(O)c4[C@@H]2c2ccc(O)cc2)[C@@H](c2ccc(O)cc2)O5)O[C@@H]3c2ccc(O)cc2)cc1 (stereo partly specified)", "active"),
    ("CCC12C=C(C(=O)OC)N3c4ccccc4C4CCN(CCC1)C2C43 (stereo unspecified)", "inactive"),
    ("CN(C)CCCNc1ccc2ncn3c4ccc(O)cc4c(=O)c1c23", "inactive"),
    ("COc1ccc2nc3cc(Cl)ccc3c(NC(C)CCCN(CCCl)CCCl)c2c1 (stereo unspecified)", "active"),
    ("COC(=O)c1ccccc1C1CN=NC12Cc1ccc3c(c1C2=O)CCC3 (stereo unspecified)", "inactive"),
    ("CCOC(NC(=O)CC)(C(F)(F)F)C(F)(F)F", "inactive"),
    ("CCOP(=O)(C/C=C/Cn1ncc(=O)[nH]c1=O)OCC", "inactive"),
    ("O=C(c1cc(Cl)cc(Cl)c1)N(C(=O)N1CCN(c2ccccc2)CC1)c1ccccc1", "inactive"),
    ("CN1CCN(CN2C(=O)C3C4C=CC(C3C2=O)C2C3C(=O)N(CN5CCN(C)CC5)C(=O)C3C42)CC1 (stereo unspecified)", "inactive"),
    ("Cc1nc(C)c(N2CCN(C(=O)NC(CCC(=O)O)C(=O)O)CC2)c(O)n1 (stereo unspecified)", "inactive"),
    ("CCOC(=O)N1C(c2ccccc2)C=CC(c2ccccc2)N1C(=O)OCC (stereo unspecified)", "inactive"),
    ("COc1ccccc1-c1c(C#N)c(N)[nH]c(=S)c1C#N", "inactive"),
    ("Brc1cccc(Nc2nc(-c3cccs3)nc3ccc(Br)cc23)c1", "inactive"),
]
